target: rec-cMet (Recombinant Human HGF R/c-MET/Fc Chimera) (Homo sapiens, UniProt P08581;P08581 SEQ:1-283,SEQ:1-625); assay: SPR; rec-cMet 100 nM; settings: tags: C-terminal HIEGRMD linker, human IgG Fc (100-330), 6xHis; R&D Systems; chain copies: 2 (inferred, Fc chimera)
Sequence (P08581 25-307, change not shown, chain 1 of 2): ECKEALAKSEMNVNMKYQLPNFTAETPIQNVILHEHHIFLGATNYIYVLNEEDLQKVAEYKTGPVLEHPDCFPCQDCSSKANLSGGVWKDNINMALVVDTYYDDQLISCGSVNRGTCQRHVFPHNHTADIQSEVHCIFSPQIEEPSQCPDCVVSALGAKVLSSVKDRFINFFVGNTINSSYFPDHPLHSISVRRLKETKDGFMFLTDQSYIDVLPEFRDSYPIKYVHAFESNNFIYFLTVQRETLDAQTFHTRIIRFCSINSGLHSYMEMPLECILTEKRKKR
Sequence (P08581 308-932, change not shown, chain 2 of 2): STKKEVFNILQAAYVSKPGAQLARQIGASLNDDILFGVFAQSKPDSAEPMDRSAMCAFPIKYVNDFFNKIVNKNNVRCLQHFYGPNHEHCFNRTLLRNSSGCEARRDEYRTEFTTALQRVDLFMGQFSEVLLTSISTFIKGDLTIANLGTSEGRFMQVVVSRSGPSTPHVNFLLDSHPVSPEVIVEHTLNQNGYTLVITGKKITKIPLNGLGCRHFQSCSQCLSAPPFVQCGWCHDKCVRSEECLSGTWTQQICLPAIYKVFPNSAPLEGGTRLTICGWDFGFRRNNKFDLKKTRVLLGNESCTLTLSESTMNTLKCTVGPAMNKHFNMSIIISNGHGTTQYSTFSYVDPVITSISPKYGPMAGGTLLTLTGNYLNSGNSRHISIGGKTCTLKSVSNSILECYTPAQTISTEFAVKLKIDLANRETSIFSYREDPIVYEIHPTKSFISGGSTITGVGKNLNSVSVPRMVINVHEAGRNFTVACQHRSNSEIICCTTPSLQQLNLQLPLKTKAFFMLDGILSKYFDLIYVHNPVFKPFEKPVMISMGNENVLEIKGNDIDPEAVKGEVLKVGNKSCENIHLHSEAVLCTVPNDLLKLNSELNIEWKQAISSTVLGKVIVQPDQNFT
MEASUREMENT TYPE: binding result

g28 (ssRNA) RNA: GGGACGCUCACGUACGCUAACCUGGGGGUUCCGCAGGAAUCGGGAACUAGAUUGGUGGUCUCAGUGCCUGGACGUGCAGU | binds
g11 (ssRNA) RNA: GGGACGCUCACGUACGCUAAGUUUAGGUGGCAUCGACCUUCAUGAAACGGGUGCACAGGCUCAGUGCCUGGACGUGCAGU | binds
g15 (ssRNA) RNA: GGGACGCUCACGUACGCUAAGACGCGGGCCACCGGCUAGCGACGGGUGGUAAAGGGCUUGUCAGUGCCUGGACGUGCAGU | binds
